# System: Mycolicibacterium vaccae
# EXPERIMENT SUMMARY: Antitubercular activity against Mycobacterium vaccae assessed as reduction in bacterial growth incubated for 42 hrs by broth microdilution assay
# Format: functional
RECORDED ENDPOINT: MIC

Specify MIC for COc1ccc(CNC(=O)c2sc3c([N+](=O)[O-])cc(C(F)(F)F)cc3[n+]2[O-])cc1 , system Mycolicibacterium vaccae.
< 1 nM

Specify MIC for C[C@H]1COC2(CCN(C(=O)c3sc4c([N+](=O)[O-])cc(C(F)(F)F)cc4[n+]3[O-])CC2)O1 , system Mycolicibacterium vaccae.
15 nM

Specify MIC for CCc1nc2ccc(Cl)cn2c1C(=O)NCc1ccc(N2CCC(c3ccc(OC(F)(F)F)cc3)CC2)cc1 , system Mycolicibacterium vaccae.
4 nM

Specify MIC for C[C@H]1COC2(CCN(c3nc(=O)c4cc(C(F)(F)F)cc([N+](=O)[O-])c4s3)CC2)O1 , system Mycolicibacterium vaccae.
< 1 nM

Specify MIC for O=C(NCc1ccc(N2CCC(c3ccc(OC(F)(F)F)cc3)CC2)cc1)c1sc2c([N+](=O)[O-])cc(C(F)(F)F)cc2[n+]1[O-] , system Mycolicibacterium vaccae.
20 nM

Specify MIC for O=C(NCc1ccc2c(c1)CCO2)c1sc2c([N+](=O)[O-])cc(C(F)(F)F)cc2[n+]1[O-] , system Mycolicibacterium vaccae.
< 1 nM

Specify MIC for COc1ccc(CNC(=O)c2nc3cc(C(F)(F)F)cc([N+](=O)[O-])c3s2)cc1 , system Mycolicibacterium vaccae.
8 nM

Specify MIC for O=C(NCc1ccc(N2CCC(c3ccc(OC(F)(F)F)cc3)CC2)cc1)c1nc2cc(C(F)(F)F)cc([N+](=O)[O-])c2s1 , system Mycolicibacterium vaccae.
125 nM
